Reported CC50 at 72 h values for the following molecules.
- assay method text: Cytotoxicity against human C8166-LTR-Luc cells after 3 days by MTT assay
- Type: cell-based

smiles repr: COCCCn1c(=O)nc(-c2ccc(N3CCN(C)CC3)nc2)c2oc3ccc(-c4cnn(C)c4)cc3c21
CC50 at 72 h: > 21.7 µM
//
smiles repr: COCCCn1c(=O)nc(-c2ccc(N3CCN(CCOC)CC3)cc2)c2oc3ccc(Cl)cc3c21
CC50 at 72 h: > 4.2 µM
//
smiles repr: COCCCn1c(=O)nc(-c2ccc(N3CCN(C(C)C)CC3)nc2)c2oc3ccc(Cl)cc3c21
CC50 at 72 h: > 3.2 µM
//
smiles repr: COCCCn1c(=O)nc(-c2ccc(N3CCN(C4CC4)CC3)cc2)c2oc3ccc(Cl)cc3c21
CC50 at 72 h: > 3.6 µM
//
smiles repr: CCNCC(=O)Nc1ccc(-c2nc(=O)n(CCCOC)c3c2oc2ccc(Cl)cc23)cc1
CC50 at 72 h: > 8.6 µM
//
smiles repr: CNc1ccc(-c2nc(=O)n(CCCOC)c3c2oc2ccc(-c4cnn(C)c4)cc23)cn1
CC50 at 72 h: > 17 µM
